Origin of values: patent US20170314054A1

Molecular target: T1, microbial transglutaminase from Streptomyces mobaraensis (MTG) (Streptomyces mobaraensis, UniProt P81453 77-407)
T1 sequence (looked up): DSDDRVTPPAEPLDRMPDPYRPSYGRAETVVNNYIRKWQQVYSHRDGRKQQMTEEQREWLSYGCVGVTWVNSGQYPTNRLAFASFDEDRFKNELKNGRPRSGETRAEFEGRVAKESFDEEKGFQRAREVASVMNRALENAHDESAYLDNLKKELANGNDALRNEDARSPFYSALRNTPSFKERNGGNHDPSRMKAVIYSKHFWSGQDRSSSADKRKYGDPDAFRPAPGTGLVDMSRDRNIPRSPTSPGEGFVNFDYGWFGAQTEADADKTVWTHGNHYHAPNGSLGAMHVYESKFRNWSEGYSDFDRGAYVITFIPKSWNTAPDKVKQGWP
Test: cell-based or functional assay
No end group written: not given here.
reported endpoint: Log2(signal), array MTG labeling with N-(Biotinyl)cadaverine

DYVLQ (also: flanked by G:S (3:1) linkers on peptide array) [DYVLQ (SEQ ID NO: 2)] : 15.5 Log2(signal)
EYFLQ (also: flanked by G:S (3:1) linkers on peptide array) [EYFLQ (SEQ ID NO: 24)] : 15.2 Log2(signal)
DFYLQ [DFYLQ (SEQ ID NO: 22)] : 15.2 Log2(signal)
NYALQ (also: flanked by G:S (3:1) linkers on peptide array) [NYALQ (SEQ ID NO: 3)] : 15.5 Log2(signal)
EYALQ (also: flanked by G:S (3:1) linkers on peptide array) [EYALQ (SEQ ID NO: 4)] : 15.5 Log2(signal)
EYVLQ (not fully specified; also: flanked by G:S (3:1) linkers on peptide array) [EYVLQ (SEQ ID NO: 6)] : 15.4 Log2(signal)
